# Target Of Assay: Hck (UniProt P08631)
# Sequence (P08631 whole entry, looked up): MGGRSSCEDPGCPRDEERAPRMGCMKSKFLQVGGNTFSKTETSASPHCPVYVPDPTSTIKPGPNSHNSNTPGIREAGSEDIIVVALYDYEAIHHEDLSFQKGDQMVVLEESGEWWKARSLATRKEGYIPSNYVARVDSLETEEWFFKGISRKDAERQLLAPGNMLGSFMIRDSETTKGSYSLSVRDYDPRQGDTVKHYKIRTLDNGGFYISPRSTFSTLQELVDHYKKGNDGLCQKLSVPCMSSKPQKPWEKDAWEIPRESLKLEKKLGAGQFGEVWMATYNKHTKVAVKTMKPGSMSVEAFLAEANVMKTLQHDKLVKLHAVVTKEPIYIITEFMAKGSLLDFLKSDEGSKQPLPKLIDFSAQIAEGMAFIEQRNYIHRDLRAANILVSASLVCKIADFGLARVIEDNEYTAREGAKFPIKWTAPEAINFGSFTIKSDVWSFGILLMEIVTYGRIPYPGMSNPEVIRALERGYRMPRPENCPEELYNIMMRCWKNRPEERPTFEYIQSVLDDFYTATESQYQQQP
# Test Details: phosphorylation enrichment, bacterial display (enrichment ratio); higher = better substrate or ligand; peptides without Tyr show the background;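 also: 11-residue human phosphosite peptides and single-mutation variants displayed on the E. coli surface, counted by deep sequencing, each peptide's frequency after selection divided by its frequency in the unselected input library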;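 also: frequency after pTyr selection over input frequency; kinase dosed for 20-30% of maximal phosphorylation in three min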
Where phosphorylation enrichment equals or exceeds 0.6, the correct label is True; where it does not, the label is False.

Sample answers from the record:
Ordered Residues: HNLDFYKETTN [FGFR3_Y648_K650E_YF]
Category: False

Ordered Residues: GLIPAYHWVIM [NMNAT1_Y64_R66W]
Category: False

Ordered Residues: QLQQAYQEAFE [YWHAZ_Y149_S145L]
Category: True

Ordered Residues: RLYARYFQGDL [PDK3_Y337]
Category: False

Ordered Residues: FSQQTYFRVSN [ABCD1_Y180_YF]
Category: True

Assess whether reported phosphorylation enrichment for AHLLQYNHRVK [LGALS3_Y221] sits at 0.6 or higher.
False

Could you please find out whether FCGFSYDDIPD [TMEM230_Y112_R108C_YF] has phosphorylation enrichment that meets 0.6 or exceeds it?
True

Dear colleague, could you confirm whether KEEEDYREENN [BMS1_Y651_K652R] has phosphorylation enrichment at or above 0.6?
True

I'd appreciate it if you could say whether PPGRSYSPCDF [TNS1_Y793_Y796C_YF] has phosphorylation enrichment at least equal to 0.6.
True

Record LLLLFYVVRYC [MPZ_Y177] ; criterion: phosphorylation enrichment no lower than 0.6. Met?
False

# check: phosphorylation enrichment of RAIDMYLMGCF [GABRB2_Y308_K303R] is greater than or equal to 0.6
True

Assess whether reported phosphorylation enrichment for TYTVSYLPDMS [FLNC_Y1602] sits at 0.6 or higher.
False

API: above_or_equal(metric=phosphorylation enrichment, cutoff=0.6) for item QRNEEYCLLDS [ITK_Y198_R193Q]
True

Say whether MCITQYERESQ [PRNP_Y218] shows phosphorylation enrichment of 0.6 or more.
False

Does the sequence KLLPEYPGVLS [DHFR2_Y163] have recorded phosphorylation enrichment that is 0.6 or more?
False

Could you verify whether the entry FQRLRYIKQLG [SAMHD1_Y146] shows phosphorylation enrichment of no less than 0.6?
False

Record IFLADCRIMEG [ALOX12B_Y318_Y318C_YF] ; criterion: phosphorylation enrichment no lower than 0.6. Met?
True
